- SYSTEM TESTED: recombinant TbGAPDH (Trypanosoma brucei brucei, UniProt P22512)
- Construct: histidine tag (cleaved yes); made in house; host or cells: E. coli BL21 (DE3)
- Sequence (P22512 whole entry): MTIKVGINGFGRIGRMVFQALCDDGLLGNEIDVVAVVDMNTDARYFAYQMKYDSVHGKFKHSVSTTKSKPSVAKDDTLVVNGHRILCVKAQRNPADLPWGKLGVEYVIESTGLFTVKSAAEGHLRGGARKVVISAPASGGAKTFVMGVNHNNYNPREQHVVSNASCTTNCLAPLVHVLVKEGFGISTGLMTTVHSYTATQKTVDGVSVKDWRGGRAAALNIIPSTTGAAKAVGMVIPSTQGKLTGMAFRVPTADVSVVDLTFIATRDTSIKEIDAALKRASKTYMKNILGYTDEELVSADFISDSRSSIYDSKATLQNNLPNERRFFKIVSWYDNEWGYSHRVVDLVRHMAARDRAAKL
- ASSAY COMMENT: TbGAPDH inhibition assay (spectrophotometric, NADH at 340 nm)
- Format: biochemical
- REPORTED CONDITIONS: 50 µM test compound; 30 °C; 1.5 mM NAD+, 0.5 mM G-3-P; n.i. = no inhibition at 50 µM
EXPERIMENTAL READOUT: inhibition at 50 µM (%)

[[record]]
molecule = "C/C=C(\\NC(=O)CCCCCCCCCCCCCCC(=O)O)C(=O)O"
experimental_readout = "inhibition at 50 µM"
unit_descriptor = "%"
result_value = 45


A = CC(C)=CCc1c2c(c3occ(-c4ccc(O)c(O)c4)c(=O)c3c1O)C=CC(C)(C)O2
B = CC(C)=CCc1c(O)c2c(c3c1OC(C)(C)C=C3)OCC(c1ccc(O)cc1O)C2=O (centres unmarked)
(Q) // task: argmin of inhibition at 50 µM over [ A , B ] Write down the label attached to your selection.
(A) B

----------
Property: IC50; scope: individual compounds
- ASSAY COMMENT: Cytotoxicity against mammalian cells
- Type: cell-based, rat
- REPORTED CONDITIONS: L6 rat skeletal myoblasts; mean ± margin of deviation of two independent determinations; read-out: Cytotoxicity (L6) IC50
Just the number in µM, nothing appended.

[[record]]
compound = "COc1cc([C@@H]2c3cc4c(cc3[C@H](O)[C@H]3COC(=O)[C@H]23)OCO4)cc(OC)c1OC [Podophyllotoxin, reference compound]"
result_value = 0.019


Kindly consider the entry below.
(Q) What value of measured IC50 is listed for `CCCC(=O)c1c(O)c(C)c(O)c(CC2=C(O)C(C)(C)C(O)=C(C(C)=O)C2=O)c1O` ?
(A) 54.2

----------
- SYSTEM TESTED: recombinant TbGAPDH (Trypanosoma brucei brucei)
- Construct: histidine tag (cleaved yes); made in house; host or cells: E. coli BL21 (DE3)
- ASSAY COMMENT: TbGAPDH inhibition assay (spectrophotometric, NADH at 340 nm)
- Format: biochemical
- REPORTED CONDITIONS: 30 °C; 1.5 mM NAD+, 0.5 mM G-3-P; 5–7 concentrations in triplicate, nonlinear regression; read-out: IC50 (TbGAPDH inhibition)
EXPERIMENTAL READOUT: IC50 (µM)

[[record]]
smiles_entry = "CC(C)=CCC/C(C)=C/Cc1ccc(O)c(C(=O)c2c(O)cc(C=O)cc2C(=O)O)c1O"
result_value = 6.68

[[record]]
smiles_entry = "Oc1cc(O)cc(CCC/C=C\\CCCCCCCCCc2cc(O)cc(O)c2)c1"
result_value = 22.8


a = CC(C)=CCC/C(C)=C/Cc1ccc(O)c(C(=O)c2c(O)cc(C(=O)O)cc2C(=O)O)c1O
b = CC(C)=CCC/C(C)=C/Cc1ccc(O)c(C(=O)c2c(O)cc(C(=O)O)cc2C=O)c1O
(Q) Lab log: flag the item ( a or b ) with the smaller IC50 figure. API: response body contains the label of the selected item.
(A) b
(b: 4.73 µM, a: 24.6 µM)

----------
- ASSAY COMMENT: Cytotoxicity against mammalian cells
- Assay type: cell-based, rat
- REPORTED CONDITIONS: rat
Entries and their IC50 values follow.
Write it as a number; the unit µM goes unstated.

Below, each entry is followed by its recorded IC50 result.
[[record]]
smiles_entry = "CC(C)=CCC/C(C)=C/Cc1ccc(O)c(C(=O)c2c(O)cc(C(=O)O)cc2C=O)c1O"
experimental_readout = "IC50"
unit_descriptor = "µM"
result_value = 48.7

[[record]]
smiles_entry = "CC(C)=CCC/C(C)=C/Cc1ccc(O)c(C(=O)c2c(O)cc(C(=O)O)cc2C(=O)O)c1O"
experimental_readout = "IC50"
unit_descriptor = "µM"
result_value = 50.6

[[record]]
smiles_entry = "Oc1cc(O)cc(CCC/C=C\\CCCCCCCCCc2cc(O)cc(O)c2)c1"
experimental_readout = "IC50"
unit_descriptor = "µM"
result_value = 15.5


(Q) Entry `CC(C)=CCC/C(C)=C/Cc1ccc(O)c(C(=O)c2c(O)cc(C=O)cc2C(=O)O)c1O` : reported IC50 = ?
(A) 48.9
